# study_target: recombinant PHGDH (Homo sapiens (Human), UniProt O43175)
# Sequence (O43175 whole entry): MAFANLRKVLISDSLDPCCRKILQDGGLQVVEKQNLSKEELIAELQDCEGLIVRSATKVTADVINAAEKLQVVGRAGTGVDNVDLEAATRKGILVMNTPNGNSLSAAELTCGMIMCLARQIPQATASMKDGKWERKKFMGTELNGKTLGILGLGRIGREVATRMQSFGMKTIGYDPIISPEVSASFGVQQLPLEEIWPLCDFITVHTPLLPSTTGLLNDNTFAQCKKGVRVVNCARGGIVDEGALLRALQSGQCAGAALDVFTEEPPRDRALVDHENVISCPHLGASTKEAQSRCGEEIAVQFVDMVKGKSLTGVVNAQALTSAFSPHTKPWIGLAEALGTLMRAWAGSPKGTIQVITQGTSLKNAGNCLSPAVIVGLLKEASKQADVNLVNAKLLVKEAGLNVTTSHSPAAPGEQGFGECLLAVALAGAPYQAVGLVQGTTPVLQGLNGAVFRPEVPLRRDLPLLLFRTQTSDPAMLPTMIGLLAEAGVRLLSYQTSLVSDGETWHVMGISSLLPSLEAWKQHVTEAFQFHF
# method_description: In vitro enzymatic activity of PHGDH by fluorescence kinetic method
# Type: biochemical
# study_conditions: recombinant PHGDH 30 ng/μL, NADH fluorescence at 456 nm
assay_metric: IC50 (µM)
One number for each entry, in µM.

compound	IC50 (µM)
NNC(=S)N/N=C/c1ccc(-c2ccc(C(=O)O)cc2)o1 [PKUMDL-WL-2222]	16.7
CCNC(=S)N/N=C/c1ccc(-c2ccc([N+](=O)[O-])cc2)o1 [PKUMDL-WL-2228]	37
COC(=O)c1ccc(-c2ccc(/C=N/NC(=S)Nc3ccc([N+](=O)[O-])cc3)o2)cc1 [PKUMDL-WL-2212]	29.8
O=C(N/N=C/c1cc([N+](=O)[O-])ccc1O)c1ccc(C(F)(F)F)cc1 [PKUMDL-WL-2128]	36.1
CCNC(=S)N/N=C/c1ccc(-c2ccc(C(=O)O)cc2)o1 [PKUMDL-WL-2226]	35.5

Could you tell me IC50 for each of these compounds? They are listed below.
1. CCNC(=S)N/N=C\c1ccc(-c2ccc(C(=O)O)c(Cl)c2)o1 [PKUMDL-WL-2201]
2. CCNC(=S)N/N=C/c1ccc(-c2ccc(O)cc2)o1 [PKUMDL-WL-2229]
3. NNC(=S)N/N=C/c1ccc(-c2ccc(S(N)(=O)=O)cc2)o1 [PKUMDL-WL-2225]
4. COC(=O)c1ccc(-c2ccc(/C=N/NC(=S)NN)o2)cc1 [PKUMDL-WL-2220]

35.7
30.3
38.9
8.9

What IC50 value was documented for this compound, O=C(N/N=C/c1cc([N+](=O)[O-])ccc1O)c1ccc(O)cc1O [PKUMDL-WL-2101] ?
34.8

###

# Tested on: colon cancer cell DLD-1
# method_description: MTT cell viability assay, DLD-1
# Assay type: cell-based
# study_conditions: Homo sapiens, 72 h, colon cancer cells
Exercise: for every item that follows, state its recorded EC50.
Answers are plain numbers, in µM.

compound	EC50, µM
O=C(N/N=C/c1cc([N+](=O)[O-])ccc1O)c1ccc(O)cc1O [PKUMDL-WL-2101]	18.3

Could you now look at the following compound, please?
Field: EC50 (colon cancer cell DLD-1). Entry: CCNC(=S)N/N=C\c1ccc(-c2ccc(C(=O)O)c(Cl)c2)o1 [PKUMDL-WL-2201]
167

###

# Test system: PHGDH-sensitive breast cancer cells HCC70
# method_description: MTT cell viability assay, HCC70
# Format: cell-based
# study_conditions: Homo sapiens, 72 h
Assign pEC50 to each entry below.
One number for each entry, as −log10 of the molar value.

smiles_str	study_target	meas_value
CCNC(=S)N/N=C\c1ccc(-c2ccc(C(=O)O)c(Cl)c2)o1	PHGDH-sensitive breast cancer cells HCC70	5.00

What pEC50 value was documented for this compound, "O=C(N/N=C/c1cc([N+](=O)[O-])ccc1O)c1ccc(O)cc1O" ?
4.97

###

Answer each item with its documented pEC50.
# Test system: normal breast epithelial cells MCF-10A
# method_description: MTT cell viability assay, MCF-10A
# Type: cell-based
# study_conditions: Homo sapiens, 72 h
One number for each entry, as −log10 of the molar value.

smiles_str	pEC50
CCNC(=S)N/N=C\c1ccc(-c2ccc(C(=O)O)c(Cl)c2)o1	4.19

Now consider the entry below.
Can you share its pEC50? I mean this compound: "O=C(N/N=C/c1cc([N+](=O)[O-])ccc1O)c1ccc(O)cc1O"
4.34
